SYSTEM TESTED: C-C chemokine receptor type 5 (Homo sapiens)
Sequence (P51681 whole entry): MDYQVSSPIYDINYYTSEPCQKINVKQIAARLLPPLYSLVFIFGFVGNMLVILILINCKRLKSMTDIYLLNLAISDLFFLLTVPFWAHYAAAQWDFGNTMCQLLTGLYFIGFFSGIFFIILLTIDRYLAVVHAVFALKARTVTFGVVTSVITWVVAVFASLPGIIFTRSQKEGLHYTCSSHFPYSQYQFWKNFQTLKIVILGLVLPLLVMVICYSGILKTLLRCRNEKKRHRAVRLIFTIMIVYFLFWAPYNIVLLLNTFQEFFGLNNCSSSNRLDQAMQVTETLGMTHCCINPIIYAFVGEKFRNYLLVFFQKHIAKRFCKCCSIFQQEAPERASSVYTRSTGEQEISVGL
ASSAY REMARKS: Inhibition of MIP-1beta ligand of chemokine receptor 5 induced calcium signal in U-87-CCR5 cells by calcium mobilization assay
Type: functional, cell-based
pIC50: −log10 of the molar value.
MEASUREMENT KIND: pIC50

**Q:** Respond only with pIC50 recorded for COc1ccc(/C=C/C(=O)OC(C)C(=O)[C@H]2C[C@@H]2[C@H](O)[C@H]2CC=CC(=O)O2)cc1 (stereo partly drawn)
**A:** 5.26

**Q:** Provide one value: measured pIC50 of COc1ccc(/C=C\C(=O)OC(C)C(=O)[C@H]2C[C@@H]2[C@H](O)[C@H]2CC=CC(=O)O2)cc1 (stereo partly drawn)
**A:** 5.22

**Q:** Quote pIC50 reported for CC(OC(=O)/C=C/c1ccc(O)cc1)C(=O)[C@H]1C[C@@H]1[C@H](O)[C@H]1CC=CC(=O)O1 (stereo partly drawn) please.
**A:** 5.14

====

A collection of compounds and their measured IC50
SYSTEM TESTED: UniProt P51681
ASSAY REMARKS: Inhibition of RANTES co-receptor of chemokine receptor 5 induced calcium signal in U-87-CCR5 cells by calcium mobilization assay
Type: functional, cell-based

**Q:** For COc1ccc(/C=C\C(=O)OC(C)C(=O)[C@H]2C[C@@H]2[C@H](O)[C@H]2CC=CC(=O)O2)cc1 (some centres not stated) , write its IC50.
**A:** > 10 µM

---
**Q:** # return recorded IC50 for input CC(OC(=O)/C=C/c1ccc(O)cc1)C(=O)[C@H]1C[C@@H]1[C@H](O)[C@H]1CC=CC(=O)O1 (some centres not stated)
**A:** > 10 µM
